The measurements presented in this section are drawn from paper PMC11766867.

- experimental_details: Saturation shake-flask solubility method
- Assay type: physicochemical
- conditions_used: aqueous USP buffer, aqueous buffer, thermodynamic from solid; buffer pH 6.8, 37 °C, 24 h, n = 3; read-out: Average Solubility mg/mL (±SD)
reported_property: solubility at 24 h (mg/mL)

CCOC(=O)Cc1csc(N/N=C(\C)C(=O)O)n1 [RW3]
2.76
